Test: protease stability score; higher = more stable; yeast display proteolysis, trypsin and chymotrypsin;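 also: log10 excess protease needed over predicted unfolded state with 0 meaning unfolded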
We use 0.5 as the dividing line for protease stability score: on or above the line is Fulfilled, below is Not fulfilled.

>  <Ordered residues>
DQTALKVFKEYLEVVLNGDEHEAVELVDKDVRMNVGDKRWHGQEHIEREIRNQTRHSRLDYDHVRFEDDGDKAVFKRTVRFTHNGKPDSSRNVMHATADNGRIKSMKVEDDR

>  <Classification>
Not fulfilled

$$$$
>  <Ordered residues>
DEDDANRVAQEILRALIEGDEKKVADLVDEDARISIGDHKFRGREQIREAVREFTEEVDHVKLESITADNGHAEATAILDINGKNQRVTFHVEVHNGRAKEVSMTSG

>  <Classification>
Fulfilled

$$$$
>  <Ordered residues>
DEKEIRKLLQKMAKMFEEGNNEELRKLGDDDLQVTYGDEEYKGPDDLVKVLETVKKLGAKVEYKEVHVEGDTVTVKVEAEMGGRKARYKVKYQADGNKVKRFQVEYSEDAQKAIKEG

>  <Classification>
Fulfilled

$$$$
>  <Ordered residues>
DEEQLKEYTKEMEHNDEEQFSRMMDKDARVIVGDKTFTGREDAATMLLLIRRRVDHIEIRKITIQGDHVVVHQVVQVNGKEAEFEREVHVKNGHIKEVHIQARDEDDERVLHQAMD

>  <Classification>
Not fulfilled

$$$$
>  <Ordered residues>
DDHAERQARQVQTALKTGDPNQMERMFDENAEVVYGDKRIHGEHEASRVAKRIKEEMRVEYDVRRVTDNEDHVKFHAIIVIDENGKPRTKQLDLTMQQENGKVRLVSFRQDR

>  <Classification>
Not fulfilled

$$$$
>  <Ordered residues>
DEELQDTAHKLLKLRQRGNWKHVQEMFDENARRIVGDKTLTGMTEIAEEVKREHEQWHLKITDLKASVEGDKVDIKFHAVFDVNGHPVTVNAMVVIVNQGDKAKRIQIRIPESVLNRINQ

>  <Classification>
Not fulfilled

$$$$

----------
// protease stability score lookup, one value per entry
Test: protease stability score; higher = more stable; yeast display proteolysis, trypsin and chymotrypsin;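 also: log10 excess protease needed over predicted unfolded state with 0 meaning unfolded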

>  <Ordered residues>
DHETQNDLATEIVRVYKHGNPDDWSKLVDPNARVVYGDKEIHGREDAMSFMKKLRNQADSIKVKDYKVKNGRVDVVVIIVVNGRHATLQFTIQFHNGKATDVKFDPKQWHELQK

>  <protease stability score>
1.28

$$$$
>  <Ordered residues>
EESLIRLATLFMRAMETGDPKQANDLVDPNARFKIGDSVINGRERFNEWLKDLKEEMSVHYRVEHMHAEGDRVEVDFVVVYNVDGRPQRMRVKLEADLSNGRMRNVTLRFPSEEEKKIKK

>  <protease stability score>
0.525

$$$$
>  <Ordered residues>
DENVVKRVHDALQTNDWQQLADLFDKDARVHVGEFQLHGHEEVQKFVDLQRKQIDHMEVRSIEIDGERAEAEFVIRVDGRKREAEITIRANNGKAKEMKIQFTDKDFERKMREKME

>  <protease stability score>
0.836

$$$$
>  <Ordered residues>
DERRLEQQQREYLKVLNTGNPDEMNELFDENASWQVGDKRYTGREEIERKLRELHNRVDQVRLDSYEVEPGRIKIDFQLDVNGVKVRITIILHYHNGRLQEVKMDVTDPEQWKHMQK

>  <protease stability score>
-0.011

$$$$
>  <Ordered residues>
DDEKQVREVVTDFIQALEEGDEKRVRQLIDPNASADVGDRKYHGREQVAEMVREQMDQVDHIEFTLRKVEIQGEEVVVRVEVVLNHNGQEKQIHMTLIFVVKNGHLQLKEIHQD

>  <protease stability score>
1.37

$$$$
